# ASSAYED TARGET: α-receptor (Rattus norvegicus)
# Construct: from tissue; host or cells: isolated rat vas deferens
# ASSAY NOTES: α-blocking activity in isolated rat vas deferens (antagonism of noradrenaline contraction)
# PROTOCOL CONDITIONS: isolated rat vas deferens, Krebs Ringer, 37° C., noradrenaline agonist, Schildt plot; read-out: pA2 (α-receptor blockade) (converted)
Below, each of the compounds is paired with its reported log10(Kb) value.
In plain terms, each number is the log10 of measured Kb in nM.

Examples with their reported log10(Kb) follow.
{"columns": ["COMPOUND", "log10(Kb)"],
 "data": [
  ["Cc1ccccc1OCC(O)CNC(C)(C)Cc1ccc(O)cc1 (stereo not shown)", 3.20],
  ["Cc1cccc(OCC(O)CNC(C)Cc2ccc(O)cc2)c1 (stereo not shown)", 3.80],
  ["C=CCc1ccccc1OCC(O)C(C)NC(C)(C)Cc1ccc(O)cc1 (stereo not shown)", 1.60],
  ["CCCc1ccccc1OCC(O)CNC(C)Cc1ccc(O)cc1 (stereo not shown)", 2.20],
  ["C#CCOc1ccccc1OCC(O)CNC(C)Cc1ccc(O)cc1 (stereo not shown)", 2.40]
]}

Request body: readout log10(Kb), system α-receptor (Rattus norvegicus), query Cc1ccccc1OCC(O)CNC(C)Cc1ccc(O)cc1 (stereo not shown) . Return the value.
2.20

Please give the result for Cc1cccc(OCC(O)CNC(C)Cc2ccc(O)cc2)c1C (stereo not shown) too.
2.90

Please give the result for C=CCc1ccccc1OCC(O)CNC(C)(C)Cc1ccc(O)cc1 (stereo not shown) too.
2.60

====

Below, each of the compounds is paired with its reported Block of isopren. ED50 PR (peripheral resistance blockade) value.
# Tested on: β-receptors
# ASSAY NOTES: β-blocking activity in reserpinized anesthetized cat (block of isoprenaline effect on heart rate and peripheral resistance; intrinsic activity)
# Format: in vivo
# PROTOCOL CONDITIONS: cumulative doses, vs isoprenaline i.v., peripheral vascular resistance
Supply the numeric figure in mg/kg, leaving out any unit text.

Examples with their reported Block of isopren. ED50 PR (peripheral resistance blockade) follow.
{"columns": ["COMPOUND", "UNIT LABEL", "ENDPOINT VALUE"],
 "data": [
  ["CC(C)NCC(O)COc1cccc2ccccc12 (stereo not shown) [Propranolol, propranolol, reference compound]", "mg/kg", 0.1],
  ["C=CCc1ccccc1OCC(O)CNC(C)(C)Cc1ccc(O)cc1 (stereo not shown)", "mg/kg", 0.06],
  ["Cc1ccccc1OCC(O)CNC(C)Cc1ccc(O)cc1 (stereo not shown)", "mg/kg", 0.07],
  ["C=CCc1ccccc1OCC(O)C(C)NC(C)(C)Cc1ccc(O)cc1 (stereo not shown)", "mg/kg", 0.6],
  ["CCc1ccccc1OCC(O)CNC(C)Cc1ccc(O)cc1 (stereo not shown)", "mg/kg", 0.15]
]}

Which Block of isopren. ED50 PR (peripheral resistance blockade) is listed for COCCc1ccc(OCC(O)CNC(C)C)cc1 (stereo not shown) [Metoprolol, metoprolol, reference compound] ?
4.7

Please give the result for C=CCc1ccccc1OCC(O)C(CC)NC(C)Cc1ccc(O)cc1 (stereo not shown) too.
3.3

====

# ASSAYED TARGET: α-receptor (Rattus norvegicus, UniProt P43140)
# Construct: from tissue; host or cells: isolated rat vas deferens
# Sequence (P43140 whole entry): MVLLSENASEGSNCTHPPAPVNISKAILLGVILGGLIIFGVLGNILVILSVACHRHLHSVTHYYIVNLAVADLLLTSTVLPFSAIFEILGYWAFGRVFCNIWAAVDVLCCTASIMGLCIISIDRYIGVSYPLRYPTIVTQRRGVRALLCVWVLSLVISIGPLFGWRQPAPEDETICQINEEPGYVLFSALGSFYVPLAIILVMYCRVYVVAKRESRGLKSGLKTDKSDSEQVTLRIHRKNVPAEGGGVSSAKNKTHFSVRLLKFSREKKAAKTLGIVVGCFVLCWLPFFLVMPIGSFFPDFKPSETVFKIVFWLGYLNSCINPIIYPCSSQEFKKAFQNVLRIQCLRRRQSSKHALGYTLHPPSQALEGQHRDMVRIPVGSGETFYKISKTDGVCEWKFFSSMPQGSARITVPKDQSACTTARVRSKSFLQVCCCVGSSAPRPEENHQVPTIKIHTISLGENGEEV
# ASSAY NOTES: α-blocking activity in isolated rat vas deferens (antagonism of noradrenaline contraction)
# PROTOCOL CONDITIONS: isolated rat vas deferens, Krebs Ringer, 37° C., noradrenaline agonist, Schildt plot; read-out: pA2 (α-receptor blockade) (converted)
Below, each of the molecules is paired with its reported Kb value.
Supply the numeric figure in nM, leaving out any unit text.

{"columns": ["MOLECULE", "UNIT LABEL", "Kb"],
 "data": [
  ["CCc1ccccc1OCC(O)CNC(C)(C)Cc1ccc(O)cc1 (centres unmarked)", "nM", 158],
  ["COc1ccccc1OCC(O)CNC(C)Cc1ccc(O)cc1 (centres unmarked)", "nM", 398],
  ["CCc1ccccc1OCC(O)C(C)NC(C)Cc1ccc(O)cc1 (centres unmarked)", "nM", 631],
  ["C=CCc1ccccc1OCC(O)C(CC)NC(C)Cc1ccc(O)cc1 (centres unmarked)", "nM", 251]
]}

Next up:
Which Kb is listed for Cc1ccccc1OCC(O)C(C)NC(C)(C)Cc1ccc(O)cc1 (centres unmarked) ?
631
